Taken from paper PMC5540273.

- Test system: MAST1;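 further: KINOMEscan kinase panel screen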
- Settings: concentration: 1 μM,replicates: in singlicate; n = 1
Record form. Attribute: %Inh. Fill in for each entry.
Express it in %; write the number only.

For COC(=O)c1cccc(NC(=O)NC2CCN(c3ccnc(NCc4ccc(F)cc4)n3)CC2)c1 , what is its reported %Inh? 0

For C[C@@H](Oc1cc(-n2cnc3ccc(-c4ccncc4)cc32)sc1C(N)=O)c1ccccc1Cl , what is its reported %Inh? 0

For NC(=O)Nc1sc(-c2ccc(F)cc2)cc1C(N)=O , what is its reported %Inh? 46

For O=C(NCC1CC1)c1ccc(-c2cc(C(=O)NC3CC3)ccc2F)cc1 , what is its reported %Inh? 36

For CC(C)S(=O)(=O)N1CCN(Cc2ccc3c(c2)nc(NC(=O)c2ccsc2)n3C[C@H](O)c2ccccc2)CC1 , what is its reported %Inh? 0

For Cl.Nc1n[nH]c2cc(-c3ccccn3)ccc12 , what is its reported %Inh? 0

For COc1ccc(Nc2nccc(N3CCC(NC(=O)c4cccc(C#N)c4)C3)n2)cc1 (stereo not shown) , what is its reported %Inh? 0

For O=C(Nc1cccc(Oc2ccc3nccn3n2)c1)Nc1cccc(C(F)(F)F)c1 , what is its reported %Inh? 0

For C[C@@H](Oc1cc(-n2cnc3cc(-c4ccncc4)ccc32)sc1C(N)=O)c1ccccc1Cl , what is its reported %Inh? 0

For c1ccc(Oc2ccc(Nc3ccnc4ccc(-c5ccccn5)cc34)cc2)cc1 , what is its reported %Inh? 2

For Cn1cc(-c2cccc3c(N)c(C(N)=O)nnc23)cn1 , what is its reported %Inh? 17

For CCOC(=O)N1CCC(n2cnc(-c3ccc(F)cc3)c2-c2ccnc(N)n2)CC1 , what is its reported %Inh? 2

For COc1cc2ncn(-c3cc(OCC4CCCCC4)c(C(N)=O)s3)c2cc1OC , what is its reported %Inh? 0
